- System: K98450-129-R-PDC complex spheroid growth, percent test/control
- Method description: Anticancer human tumor K98450-129-R-PDC patient-derived colon adenocarcinoma cell line growth inhibition [RAS]
- Measurement setup: second compound 0.3 µM; first compound 1 µM; stronger effect = lower value
// values below are reported viability, T/C

{"Molecule": "CC(Nc1ccc2c(c1)OCCn1cc(N3C(=O)OCC3C(F)F)nc1-2)C(N)=O (configuration not stated) + CCn1c(-c2cccnc2C(C)OC)c2c3cc(ccc31)N1CCOC(CC(NC(=O)C(C(C)C)N(C)C(=O)C3(F)CCN(C(=O)C#CC(C)(C)N(C)C)CC3)C(=O)N3CCCC(N3)C(=O)OCC(C)(C)C2)C1", "Unit annotation": "%", "viability, T/C": 23.6}
{"Molecule": "Nc1ccn(C2OC(CO)C(O)C2(F)F)c(=O)n1 (configuration not stated) + CCn1c(-c2cccnc2C(C)OC)c2c3cc(ccc31)N1CCOC(CC(NC(=O)C(C(C)C)N(C)C(=O)C3(F)CCN(C(=O)C#CC(C)(C)N(C)C)CC3)C(=O)N3CCCC(N3)C(=O)OCC(C)(C)C2)C1", "Unit annotation": "%", "viability, T/C": 15.6}

* * *

- System: K98450-129-R-PDC complex spheroid growth, percent test/control
- Method description: Anticancer human tumor K98450-129-R-PDC cell line growth inhibition [RAS]; active = viability on the fitted dose curve at most 10% of control; inactive = the rest;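 note: luminescence used as a proxy for viable cell amount; spheroids exposed to agents for seven days before the viability readout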
- Measurement setup: second compound 0.3 µM; first compound 1 µM
Outcomes: active, inactive

{"Molecule": "C=CC(=O)Nc1cc(Nc2nccc(-c3cn(C)c4ccccc34)n2)c(OC)cc1N(C)CCN(C)C + CCn1c(-c2cccnc2C(C)OC)c2c3cc(ccc31)N1CCOC(CC(NC(=O)C(C(C)C)N(C)C(=O)C3(F)CCN(C(=O)C#CC(C)(C)N(C)C)CC3)C(=O)N3CCCC(N3)C(=O)OCC(C)(C)C2)C1", "Cat": "active"}
{"Molecule": "CCC(CC)c1cc(NC2CCC(N)C2)n2nccc2n1 (configuration not stated) + CCn1c(-c2cccnc2C(C)OC)c2c3cc(ccc31)N1CCOC(CC(NC(=O)C(C(C)C)N(C)C(=O)C3(F)CCN(C(=O)C#CC(C)(C)N(C)C)CC3)C(=O)N3CCCC(N3)C(=O)OCC(C)(C)C2)C1", "Cat": "inactive"}
{"Molecule": "CC(=O)OC12COC1CC(O)C1(C)C(=O)C(O)C3=C(C)C(OC(=O)C(O)C(NC(=O)OC(C)(C)C)c4ccccc4)CC(O)(C(OC(=O)c4ccccc4)C21)C3(C)C (configuration not stated) + CCn1c(-c2cc(N3CCN(C)CC3)cnc2C(C)OC)c2c3cc(ccc31)-c1csc(n1)CC(NC(=O)C1CC1C)C(=O)N1CCCC(N1)C(=O)OCC(C)(C)C2", "Cat": "inactive"}
{"Molecule": "NC1c2ccccc2OC12CCN(c1cnc3c(N4CCCc5ncccc54)n[nH]c3n1)CC2 (configuration not stated) + CCn1c(-c2cccnc2C(C)OC)c2c3cc(ccc31)N1CCOC(CC(NC(=O)C(C(C)C)N(C)C(=O)C3(F)CCN(C(=O)C#CC(C)(C)N(C)C)CC3)C(=O)N3CCCC(N3)C(=O)OCC(C)(C)C2)C1", "Cat": "active"}
{"Molecule": "C=CC(=O)N1CCN(c2nc(OCC3CCCN3C)nc3c(F)c(-c4nc(N)cc(C)c4C(F)(F)F)c(Cl)cc23)C(C)C1 (configuration not stated) + CCn1c(-c2cccnc2C(C)OC)c2c3cc(ccc31)N1CCOC(CC(NC(=O)C(C(C)C)N(C)C(=O)C3(F)CCN(C(=O)C#CC(C)(C)N(C)C)CC3)C(=O)N3CCCC(N3)C(=O)OCC(C)(C)C2)C1", "Cat": "inactive"}
{"Molecule": "CC(C)NCC(C(=O)N1CCN(c2ncnc3c2C(C)CC3O)CC1)c1ccc(Cl)cc1 (configuration not stated) + CCn1c(-c2cccnc2C(C)OC)c2c3cc(ccc31)N1CCOC(CC(NC(=O)C(C(C)C)N(C)C(=O)C3(F)CCN(C(=O)C#CC(C)(C)N(C)C)CC3)C(=O)N3CCCC(N3)C(=O)OCC(C)(C)C2)C1", "Cat": "inactive"}
{"Molecule": "Nc1ccn(C2OC(CO)C(O)C2(F)F)c(=O)n1 (configuration not stated) + CCn1c(-c2cc(N3CCN(C)CC3)cnc2C(C)OC)c2c3cc(ccc31)-c1csc(n1)CC(NC(=O)C1CC1C)C(=O)N1CCCC(N1)C(=O)OCC(C)(C)C2", "Cat": "inactive"}
